System: A549-ACTB-RAB5A
Assay: phenotypically active (imaging signature differs from DMSO and reproducible) at any of 0.3-9 uM (binary (1 = active, 0 = inactive)); higher = active
Conditions: treatment time: 24 h
Where a name gives a salt, the structure may show the parent alone.
The categories you may choose from are Y (active), N (inactive)

O=C(O)COc1ccc(Br)cc1/C=C1\SC(=S)N(Cc2cccnc2)C1=O; N
CCN(CC)C(C)CN1c2ccccc2Sc2ccccc21 (configuration not stated) [profenamine]; N

Please turn your attention to the following entry.
Query: recorded result category for CCC1(O)CC2CN(CCc3c([nH]c4ccccc34)C(C(=O)OC)(c3cc4c(cc3OC)N(C)C3C(O)(C(=O)OC)C(OC(C)=O)C5(CC)C=CCN6CCC43C65)C2)C1 (configuration not stated) [Vinblastine sulfate] in this test
Y
